- experimental_details: absorption spectrum of methanol solutions
- Assay type: physicochemical
- measurement_context: maximum absorption wavelength
Kindly supply the reported λmax (MeOH) values for the records listed here.
The answer is to be given in nm; state only the numeric part.

Name the reported λmax (MeOH) value associated with the molecule CCN1C(=O)C(=C2Sc3ccccc3N2C)SC1=Nc1scc[n+]1C
444

And CCN1C(=O)C(=C2Sc3ccccc3N2C)SC1=Nc1sc2cc(OC)ccc2[n+]1CC ?
466

And CC[n+]1c(N=C2SC(=CC=C3Sc4ccccc4N3C)C(=O)N2C)sc2ccccc21 ?
564

And CCN1C(=O)C(=C2Sc3ccccc3N2C)SC1=Nc1sc2ccccc2[n+]1CC ?
460

And CCn1c(=Cc2sc3ccccc3[n+]2CC)sc(=CC=C2Sc3ccccc3N2C)c1=O [Compound S-2, reference compound] ?
593

And CCN1C(=O)C(=C2Sc3ccccc3N2C)SC1=Nc1cccc[n+]1CC [Compound I-7] ?
435

And CCN1C(=O)C(=C2Sc3ccccc3N2C)SC1=Nc1cccc[n+]1CC [Compound I-6] ?
434

And CCN1CCSC1=CC=C1SC(=Nc2sc3ccccc3[n+]2CC)N(CC)C1=O ?
520

And CCn1c(=Cc2sc3ccccc3[n+]2CC)sc(=C2Sc3ccccc3N2C)c1=O [Compound S-1, reference compound] ?
500

And CCN1C(C)=CSC1=CC=C1SC(=Nc2sc3cc(OC)ccc3[n+]2CC)N(CC)C1=O ?
570

And CCN1C(=O)C(=C2Sc3ccc(OC)cc3N2C)SC1=Nc1sc2ccccc2[n+]1CC [Compound I-5] ?
460

And CCN1C(=O)C(=C2Sc3ccccc3N2C)SC1=Nc1sc2cc(Cl)ccc2[n+]1CC ?
462

And CCN1C(=O)C(=CC=C2C=Cc3ccccc3N2CC)SC1=Nc1ccc2ccccc2[n+]1C ?
582

And CCN1C(=O)C(=C2Sc3ccc(OC)cc3N2C)SC1=Nc1sc2ccccc2[n+]1CC [Compound I-8] ?
467
